# measurement-notes: Example 1 Part A: single ascending dose plasma pharmacokinetics
# Format: in vivo, human
# test-settings: both sexes, human, healthy volunteers, single oral 150-2400 mg, range among cohorts, post dose, read-out: Median Tmax
# Protocol: The in-house period was 6 days/5 nights. Frequent PK sampling was included in the study to evaluate single-dose PK. Part B of the study included assessments designed to assess preliminary efficacy. Single ascending doses of compound A were assessed in healthy adult males and females in Part A of a two-part, randomized, double-blind, placebo-controlled, first-in-humans Study (see Example 1, Part A).
parameter: Tmax

Request: For the compound "CC(C)(C[C@H](N)C(=O)O)C(F)F" , what Tmax is on record?
Response: 0.5 to 1.5 h
